# tested_target: human FXR (NR1H4) (Homo sapiens, UniProt Q96RI1)
# Sequence (Q96RI1 1-476 isoform Q96RI1-1): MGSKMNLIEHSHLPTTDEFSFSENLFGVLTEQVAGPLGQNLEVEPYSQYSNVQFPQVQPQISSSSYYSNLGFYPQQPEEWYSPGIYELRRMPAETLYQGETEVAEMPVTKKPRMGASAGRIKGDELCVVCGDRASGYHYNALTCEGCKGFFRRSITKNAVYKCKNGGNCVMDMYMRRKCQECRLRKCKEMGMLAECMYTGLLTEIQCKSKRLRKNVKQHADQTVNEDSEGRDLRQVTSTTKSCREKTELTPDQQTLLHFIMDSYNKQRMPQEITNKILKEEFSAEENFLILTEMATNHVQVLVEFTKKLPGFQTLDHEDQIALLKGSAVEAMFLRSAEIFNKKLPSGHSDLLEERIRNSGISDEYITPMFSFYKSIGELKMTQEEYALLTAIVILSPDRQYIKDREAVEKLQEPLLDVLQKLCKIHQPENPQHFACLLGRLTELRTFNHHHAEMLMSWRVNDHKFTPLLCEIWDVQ
# assay_text: Human FXR (NR1H4) agonist assessment, FXRE-NanoLuc reporter in HEK293T cells
# Type: cell-based
# experimental_setup: FXR activation, HEK293T FXRE-NanoLuc reporter, 24 hr; read-out: EC50
pEC50: −log10 of the molar value.
The entries below come with measured pEC50 values attached.

Record excerpt, results attached:
-- ask Request the reported pEC50 associated with CC[C@H]1[C@@H](OC(=O)c2cccc(I)c2)[C@@H]2[C@H](CC[C@]3(C)C([C@H](C)CCC(=O)OC)=CC[C@@H]23)[C@@]2(C)CCCC[C@@H]12 [3-1]
-- reply 5.00 to 6.00

-- ask Request the reported pEC50 associated with CC[C@H]1[C@@H](O)[C@@H]2[C@H](CC[C@]3(C)[C@@H]([C@H](C)CCNS(=O)(=O)C[C@]45CC[C@H](CC4=O)C5(C)C)CC[C@@H]23)[C@@]2(C)CCCC[C@@H]12 [6-3]
-- reply 5.00 to 6.00

-- ask Request the reported pEC50 associated with CC[C@H]1[C@@H](O)[C@@H]2[C@H](CC[C@]3(C)[C@@H]([C@H](C)CCNC(=O)NS(=O)(=O)c4ccc5c(c4)CCC(C)(C)O5)CC[C@@H]23)[C@@]2(C)CCCC[C@@H]12 [5-29]
-- reply > 6.00

-- ask Request the reported pEC50 associated with C[C@H](CC(=O)O)[C@H]1CC[C@H]2[C@@H]3CC[C@@H]4C[C@H](O)CC[C@]4(C)[C@H]3C[C@H](O)[C@]12C [RC-1]
-- reply 5.00 to 6.00

# evaluate next
-- ask Request the reported pEC50 associated with CC[C@H]1[C@@H](OC(=O)c2cccc(I)c2)[C@H]2[C@@H]3[C@@H](O)C=C([C@H](C)CCC(=O)OC)[C@@]3(C)CC[C@@H]2[C@@]2(C)CCCC[C@@H]12 [3-3]
-- reply < 5.00

====

# tested_target: MRGPRX4 (Homo sapiens, UniProt Q96LA9)
# Sequence (Q96LA9 whole entry): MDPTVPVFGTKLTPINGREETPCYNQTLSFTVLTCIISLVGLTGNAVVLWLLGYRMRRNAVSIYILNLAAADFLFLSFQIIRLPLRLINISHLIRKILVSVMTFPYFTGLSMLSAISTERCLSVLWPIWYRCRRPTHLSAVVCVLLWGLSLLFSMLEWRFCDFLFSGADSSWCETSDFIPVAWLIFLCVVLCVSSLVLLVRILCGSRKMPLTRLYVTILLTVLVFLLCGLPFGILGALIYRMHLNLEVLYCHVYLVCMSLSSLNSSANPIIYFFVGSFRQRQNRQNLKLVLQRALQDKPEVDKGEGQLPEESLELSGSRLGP
# assay_text: MRGPRX4 activation, Fluo-8 Ca2+ FLIPR assay in HEK293T cells stably expressing MRGPRX4
# Assay type: cell-based
# experimental_setup: second E3-8-1, 14 nM, n = 2
outcome_measure: Activation (%)
Report only the number, with the unit % understood.

-- ask Request the reported Activation (%) associated with CC[C@H]1[C@@H](O)[C@@H]2[C@H](CC[C@]3(C)[C@@H]([C@H](C)CNC(=O)NS(=O)(=O)c4ccc(N5CCCCC5)nc4)CC[C@@H]23)[C@@]2(C)CCCC[C@@H]12
-- reply 3.79

***
-- ask Request the reported Activation (%) associated with CC[C@H]1[C@@H](O)[C@@H]2[C@H](CC[C@]3(C)[C@@H]([C@H](C)COC(=O)NS(=O)(=O)c4ccc5c(c4)CCC(C)(C)O5)CC[C@@H]23)[C@@]2(C)CCCC[C@@H]12
-- reply 3.79

-- ask Request the reported Activation (%) associated with CC[C@H]1[C@@H](O)[C@@H]2[C@H](CC[C@]3(C)[C@@H]([C@H](C)COC(=O)NS(=O)(=O)c4ccc(N5CCCCC5)nc4)CC[C@@H]23)[C@@]2(C)CCCC[C@@H]12
-- reply 2.55

-- ask Request the reported Activation (%) associated with CC[C@H]1[C@@H](O)[C@@H]2[C@H](CC[C@]3(C)[C@@H]([C@H](C)COC(=O)NS(=O)(=O)c4ccc(C(C)(C)CF)cc4)CC[C@@H]23)[C@@]2(C)CCCC[C@@H]12
-- reply 3.17

====

# tested_target: UniProtKB Q96LA9
# assay_text: MRGPRX4 activation, Fluo-8 Ca2+ FLIPR assay in HEK293T cells stably expressing MRGPRX4
# Format: cell-based
# experimental_setup: second E3-8-1, 41 nM, n = 1
The entries below come with measured Activation (%) values attached.
Report only the number, with the unit % understood.

-- ask Given the entry CC[C@H]1[C@@H](O)[C@@H]2[C@H](CC[C@]3(C)[C@@H]([C@H](C)COC(=O)NS(=O)(=O)c4ccc(N5CCCCC5)nc4)CC[C@@H]23)[C@@]2(C)CCCC[C@@H]12 [18-3] , what Activation (%) was observed with UniProtKB Q96LA9?
-- reply 2.86

***
-- ask Given the entry CC[C@H]1[C@@H](O)[C@@H]2[C@H](CC[C@]3(C)[C@@H]([C@H](C)COC(=O)NS(=O)(=O)c4ccc5c(c4)CCC(C)(C)O5)CC[C@@H]23)[C@@]2(C)CCCC[C@@H]12 [18-2] , what Activation (%) was observed with UniProtKB Q96LA9?
-- reply 3.17

-- ask Given the entry CC[C@H]1[C@@H](O)[C@@H]2[C@H](CC[C@]3(C)[C@@H]([C@H](C)COC(=O)NS(=O)(=O)c4ccc(C(C)(C)CF)cc4)CC[C@@H]23)[C@@]2(C)CCCC[C@@H]12 [18-1] , what Activation (%) was observed with UniProtKB Q96LA9?
-- reply 2.55

-- ask Given the entry CC[C@H]1[C@@H](O)[C@@H]2[C@H](CC[C@]3(C)[C@@H]([C@H](C)CNC(=O)NS(=O)(=O)c4ccc(N5CCCCC5)nc4)CC[C@@H]23)[C@@]2(C)CCCC[C@@H]12 [20-3] , what Activation (%) was observed with UniProtKB Q96LA9?
-- reply 3.48

====

# tested_target: MRGPRX4 (Homo sapiens)
# assay_text: MRGPRX4 activation, Fluo-8 Ca2+ FLIPR assay in HEK293T cells stably expressing MRGPRX4
# Type: cell-based
# Design: key: fluorescence change dF/F0
# experimental_setup: E3-9, Conc. (Log[M]) −6.4
outcome_measure: MRGPRX4 activation, Average
Form rule: numeric answer, no unit written next to it.

-- ask Request the reported MRGPRX4 activation, Average associated with CC[C@H]1[C@@H](O)[C@@H]2[C@H](CC[C@]3(C)[C@@H]([C@H](C)CCNC(=O)NS(=O)(=O)c4cccs4)CC[C@@H]23)[C@@]2(C)CCC(F)(F)C[C@@H]12 [10-4]
-- reply 0.015

-- ask Request the reported MRGPRX4 activation, Average associated with CC[C@H]1[C@@H](O)[C@@H]2[C@H](CC[C@]3(C)[C@@H]([C@H](C)CCNC(=O)NS(=O)(=O)c4cc(F)ccc4F)CC[C@@H]23)[C@@]2(C)CCC(F)(F)C[C@@H]12 [10-2]
-- reply 0.019

-- ask Request the reported MRGPRX4 activation, Average associated with CC[C@H]1[C@@H](O)[C@@H]2[C@H](CC[C@]3(C)[C@@H]([C@H](C)CCNC(=O)NS(=O)(=O)c4ccc5c(c4)CCC(C)(C)O5)CC[C@@H]23)[C@@]2(C)CCCC[C@@H]12 [5-29]
-- reply 0.018

-- ask Request the reported MRGPRX4 activation, Average associated with CC[C@H]1[C@@H](O)[C@@H]2[C@H](CC[C@]3(C)[C@@H]([C@H](C)CCNC(=O)C(=O)NS(=O)(=O)c4cccs4)CC[C@@H]23)[C@@]2(C)CCCC[C@@H]12 [8-2]
-- reply 0.011

-- ask Request the reported MRGPRX4 activation, Average associated with CC[C@H]1[C@@H](O)[C@@H]2[C@H](CC[C@]3(C)[C@@H]([C@H](C)CCNC(=S)NS(=O)(=O)c4cccs4)CC[C@@H]23)[C@@]2(C)CCC(F)(F)C[C@@H]12 [11-3]
-- reply 0.008

-- ask Request the reported MRGPRX4 activation, Average associated with CC[C@H]1[C@@H](O)[C@@H]2[C@H](CC[C@]3(C)[C@@H]([C@H](C)CCNC(=O)C(=O)NS(=O)(=O)c4cc(F)ccc4F)CC[C@@H]23)[C@@]2(C)CCCC[C@@H]12 [8-5]
-- reply 0.016

***
-- ask Request the reported MRGPRX4 activation, Average associated with CC[C@H]1[C@@H](O)[C@@H]2[C@H](CC[C@]3(C)[C@@H]([C@H](C)CCNC(=O)NS(=O)(=O)c4ccc(Br)cc4OC(F)(F)F)CC[C@@H]23)[C@@]2(C)CC[C@H](F)C[C@@H]12 [9-6]
-- reply 0.018

-- ask Request the reported MRGPRX4 activation, Average associated with CC[C@H]1[C@@H](O)[C@@H]2[C@H](CC[C@]3(C)[C@@H]([C@H](C)CCNS(=O)(=O)c4cc(F)ccc4F)CC[C@@H]23)[C@@]2(C)CCCC[C@@H]12 [6-2]
-- reply 0.016

-- ask Request the reported MRGPRX4 activation, Average associated with CC[C@H]1[C@@H](O)[C@@H]2[C@H](CC[C@]3(C)[C@@H]([C@H](C)CCNC(=S)NS(=O)(=O)c4ccc(C(C)(C)CF)cc4)CC[C@@H]23)[C@@]2(C)CCC(F)(F)C[C@@H]12 [11-4]
-- reply 0.013

-- ask Request the reported MRGPRX4 activation, Average associated with CC[C@H]1[C@@H](O)[C@@H]2[C@H](CC[C@]3(C)[C@@H]([C@H](C)CCNS(=O)(=O)C4CC4)CC[C@@H]23)[C@@]2(C)CCCC[C@@H]12 [6-5]
-- reply 0.016

-- ask Request the reported MRGPRX4 activation, Average associated with CC[C@H]1[C@@H](O)[C@@H]2[C@H](CC[C@]3(C)[C@@H]([C@H](C)CCN=C=S)CC[C@@H]23)[C@@]2(C)CCC(F)(F)C[C@@H]12 [11-2]
-- reply 0.013
